The reported numbers originate from patent US12617779B2.

Recorded Production rate of Alvocidib by entry
Test: Evaluation of conversion rate to active form in buffer solution (Experimental Example 1)
Type: physicochemical
Conditions: pH6.0, 2 hr
Experimental: For Examples 1 to 16 and Comparative Examples 1 to 14, the attrition rate of the test compound and the conversion rate of the test compound to Alvocidib in a buffer solution were calculated by the following method. Examples 1 to 16 and Comparative Examples 1 to 14 were each left in buffer solutions adjusted to pH 5.0, 5.5, 6.0, 6.5, 7.0 and 7.4, respectively, at a concentration of 25 umol/L at 37° C. […]
measurement kind: Production rate of Alvocidib (%)

- CN1CC[C@H](c2c(O)cc(O)c3c(=O)cc(-c4ccccc4Cl)oc23)[C@H](OC(=O)[C@@H](N)CO)C1 [Comparative Example 9, reference compound]: 43.4
- CCOC(=O)O[C@@H]1CN(C)CC[C@@H]1c1c(O)cc(O)c2c(=O)cc(-c3ccccc3Cl)oc12 [Comparative Example 3, reference compound]: 1.2
- CCNC(=O)O[C@@H]1CN(C)CC[C@@H]1c1c(O)cc(O)c2c(=O)cc(-c3ccccc3Cl)oc12 [Comparative Example 4, reference compound]: 1.8
- CC(C)[C@H](N)C(=O)O[C@@H]1CN(C)CC[C@@H]1c1c(O)cc(O)c2c(=O)cc(-c3ccccc3Cl)oc12 [Comparative Example 10, reference compound]: 12.8
- CNC(=O)O[C@@H]1CN(C)CC[C@@H]1c1c(O)cc(O)c2c(=O)cc(-c3ccccc3Cl)oc12 [Comparative Example 5, reference compound]: 0.0
- C[C@H](N)C(=O)O[C@@H]1CN(C)CC[C@@H]1c1c(O)cc(O)c2c(=O)cc(-c3ccccc3Cl)oc12 [Comparative Example 7, reference compound]: 70.9
- CNCCN(C)C(=O)Oc1cc(O)c2c(=O)cc(-c3ccccc3Cl)oc2c1[C@H]1CCN(C)C[C@H]1O [Comparative Example 14, reference compound]: 97.0
- CNC(=O)Oc1cc(O)c2c(=O)cc(-c3ccccc3Cl)oc2c1[C@H]1CCN(C)C[C@H]1O [Comparative Example 2, reference compound]: 98.3
- CN1CC[C@H](c2c(O)cc(O)c3c(=O)cc(-c4ccccc4Cl)oc23)[C@H](OC(=O)CN)C1 [Comparative Example 8, reference compound]: 62.9
- CN1CC[C@H](c2c(OC(=O)N(C)CCN)cc(O)c3c(=O)cc(-c4ccccc4Cl)oc23)[C@H](O)C1 [Comparative Example 13, reference compound]: 63.0
